The reported measurements were obtained from patent US12187709B2.

# measured.on: Human Cbl-b (residues 40-426) (Homo sapiens (Human), UniProt Q13191)
# assay.notes: Cbl-b SPR assay
# Assay type: binding
# experimental.setup: C-cbl SPR Kd vs Cbl-b SPR Kd
result.type: Fold of selectivity (×)
Return type: number; implicit unit ×.

Any idea what Fold of selectivity was measured for CC1(NCc2cc3c(c(C(F)(F)F)c2)CN(c2cccc([C@@H](C4COC4)n4ccnn4)c2)C3=O)CCC1 (single isomer, unassigned) [Compound 436] ?
5.3

Any idea what Fold of selectivity was measured for CCOC1CC([C@H](c2cccc(N3Cc4c(cc(CNC5(C)CCC5)cc4C(F)(F)F)C3=O)c2)c2nncn2C)C1 (single isomer, unassigned) [Compound 265] ?
7.5

Any idea what Fold of selectivity was measured for C[C@H](c1cccc(N2Cc3c(cc(CNC4(C)CCC4)cc3C(F)(F)F)C2=O)c1)c1nncn1C (single isomer, unassigned) [Compound 170] ?
2.8

Any idea what Fold of selectivity was measured for Cn1cnnc1[C@@H](c1cccc(N2Cc3c(cc(CNC4(C)CCC4)cc3C(F)(F)F)C2=O)c1)C1(O)CCC1 (single isomer, unassigned) [Compound 429] ?
4.8

Any idea what Fold of selectivity was measured for CO[C@H]1C[C@](c2cccc(N3Cc4c(cc(CN[C@]5(C)C[C@H](O)C5)cc4C(F)(F)F)C3=O)c2)(c2nncn2C)C1 [Compound 484] ?
13

Any idea what Fold of selectivity was measured for Cn1cnnc1[C@]1(c2cccc(N3Cc4c(cc(CNC5(C)CCC5)cc4C(F)(F)F)C3=O)c2)C[C@H](CO)C1.O=CO [Compound 99] ?
4.8

Any idea what Fold of selectivity was measured for Cn1cnnc1[C@H](c1cccc(N2Cc3c(cc(CNC4(C)CCC4)cc3C(F)(F)F)C2=O)c1)C1CC(F)C1 (single isomer, unassigned) [Compound 127] ?
13

Any idea what Fold of selectivity was measured for COCCC1(NCc2cc3c(c(C(F)(F)F)c2)CN(c2cccc([C@]4(c5nncn5C)C[C@H](OC)C4)c2)C3=O)CCC1 [Compound 493] ?
7.8

Any idea what Fold of selectivity was measured for CO[C@H]1C[C@](c2cccc(N3Cc4c(cc(CNCC5CCC5)cc4C(F)(F)F)C3=O)c2)(c2nncn2C)C1 [Compound 416] ?
13

Any idea what Fold of selectivity was measured for CO[C@H]1C[C@](c2cccc(N3Cc4c(cc(CNC5CC6(C5)CC6(F)F)cc4C(F)(F)F)C3=O)c2)(c2nncn2C)C1 (some centres unmarked) [Compound 426] ?
15

Any idea what Fold of selectivity was measured for Cn1cnnc1[C@@H](c1cccc(N2Cc3c(cc(CNC4(C)CC4)cc3C(F)(F)F)C2=O)c1)C1COC1 (single isomer, unassigned) [Compound 466] ?
3.6

Any idea what Fold of selectivity was measured for CO[C@H]1C[C@](c2cccc(N3Cc4c(cc(CNC5CC(C)(C)C5)cc4C(F)(F)F)C3=O)c2)(c2nncn2C)C1 [Compound 488] ?
13

Any idea what Fold of selectivity was measured for CO[C@H]1C[C@@](c2cc(N[C@H](C)CC#N)cc(N3Cc4c(cc(CNC5(C)CCC5)cc4C(F)(F)F)C3=O)c2)(c2nncn2C)C1 (single isomer, unassigned) [Compound 228] ?
8.7

Any idea what Fold of selectivity was measured for CO[C@H]1C[C@](c2cccc(N3Cc4c(cc(CNC5CC6C(C5)C6(F)F)cc4C(F)(F)F)C3=O)c2)(c2nncn2C)C1 (some centres unmarked) [Compound 427] ?
14

---

# measured.on: Cbl-b (Homo sapiens (Human))
# assay.notes: Cbl-b LCK Ub TR-FRET assay (Cbl-b Lck HTRF)
# Type: biochemical
# experimental.setup: ratio C-cbl Lck HTRF IC50 / Cbl-b Lck HTRF IC50
result.type: fold-selectivity (Cbl-b over C-cbl)

> print(dat)
                                   compound                          result.type  reading
1  CC(C)[C@H]1CN(C)CCN1Cc1cc2c(c(C(F)(F)F)c1)CN(c1cc([C@]3(c4nncn4C)C[C@@H](C)C3)cc(NC3CCCC3)n1)C2=O [Compound 74]  fold-selectivity (Cbl-b over C-cbl)   (1.5x)
2  C[C@H](NC1CCC1)c1cc2c(c(C(F)(F)F)c1)CN(c1cccc(C3(c4nncn4C)CC(F)(F)C3)c1)C2=O (single isomer, unassigned) [Compound 37]  fold-selectivity (Cbl-b over C-cbl)   (1.5x)

---

# measured.on: Cbl-b (Homo sapiens (Human), UniProt Q13191)
# Sequence (Q13191 40-426): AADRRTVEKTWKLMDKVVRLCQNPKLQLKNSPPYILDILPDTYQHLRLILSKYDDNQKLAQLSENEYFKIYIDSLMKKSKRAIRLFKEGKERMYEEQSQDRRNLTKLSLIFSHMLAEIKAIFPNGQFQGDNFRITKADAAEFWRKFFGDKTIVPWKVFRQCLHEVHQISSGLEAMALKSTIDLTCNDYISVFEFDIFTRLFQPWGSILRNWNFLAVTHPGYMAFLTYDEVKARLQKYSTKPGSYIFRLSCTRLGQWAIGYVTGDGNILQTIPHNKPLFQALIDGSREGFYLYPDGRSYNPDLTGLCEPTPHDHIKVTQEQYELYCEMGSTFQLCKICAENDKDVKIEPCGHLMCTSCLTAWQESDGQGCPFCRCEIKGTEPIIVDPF
# assay.notes: Cbl-b LCK Ub TR-FRET assay (Cbl-b Lck HTRF)
# Type: biochemical
# experimental.setup: Cbl-b LCK Ub TR-FRET, Example 121
For each record, write down the corresponding pIC50.
Would you please state pIC50, meaning minus log10 of the concentration in mol/L, as a bare number?

Any idea what pIC50 was measured for CO[C@H]1C[C@](c2cccc(N3Cc4c(cc(CNC5CC6(C5)CC6(F)F)cc4C(F)(F)F)C3=O)c2)(c2nncn2C)C1 (some centres unmarked) ?
7.89

Any idea what pIC50 was measured for Cn1cnnc1[C@@H](c1cccc(N2Cc3c(cc(CNC4(C)CCC4)cc3C(F)F)C2=O)c1)C1CC(F)C1 (single isomer, unassigned) [Compound 458] ?
7.85

Any idea what pIC50 was measured for CO[C@H]1C[C@](c2cccc(N3Cc4c(cc(CNC5CC6(C5)CC6F)cc4C(F)(F)F)C3=O)c2)(c2nncn2C)C1 (some centres unmarked) ?
7.89

Any idea what pIC50 was measured for "CO[C@H]1C[C@](c2cccc(N3Cc4c(cc(CNC5CCC5)cc4C(F)(F)F)C3=O)c2)(c2nncn2C)C1" ?
8.03

Any idea what pIC50 was measured for CO[C@H]1C[C@](c2cccc(N3Cc4c(cc(CNCC5CC56CC6(F)F)cc4C(F)(F)F)C3=O)c2)(c2nncn2C)C1 (some centres unmarked) ?
7.92

---

For each record, write down the corresponding fold-selectivity (Cbl-b over C-cbl).
# measured.on: Cbl-b (Homo sapiens (Human), UniProt Q13191)
# assay.notes: Cbl-b LCK Ub TR-FRET assay (Cbl-b Lck HTRF)
# Assay type: biochemical
# experimental.setup: ratio C-cbl Lck HTRF IC50 / Cbl-b Lck HTRF IC50
Return type: number; implicit unit x.

Any idea what fold-selectivity (Cbl-b over C-cbl) was measured for CO[C@H]1C[C@](O)(C(c2cccc(N3Cc4c(cc(CNC5(C)CCC5)cc4C(F)(F)F)C3=O)c2)c2nncn2C)C1 (single isomer, unassigned) [Compound 367] ?
1.7

Any idea what fold-selectivity (Cbl-b over C-cbl) was measured for "Cn1cnnc1[C@]1(c2cc(NC3CCCC3)cc(N3Cc4c(cc(CNC5(C)CCC5)cc4C(F)(F)F)C3=O)c2)C[C@@H](C)C1" ?
3.4

Any idea what fold-selectivity (Cbl-b over C-cbl) was measured for "C[C@H]1C[C@@](c2cccc(N3Cc4c(cc(CNC5(C)CCC5)cc4C(F)(F)F)C3=O)c2)(c2nncn2C)O1" ?
3.4

Any idea what fold-selectivity (Cbl-b over C-cbl) was measured for "C=C[C@@H](C)Oc1cc(N2Cc3c(cc(CNC4(C)CCC4)cc3C(F)(F)F)C2=O)cc([C@]2(c3nncn3C)C[C@@H](OC)C2)c1" ?
1.9

Any idea what fold-selectivity (Cbl-b over C-cbl) was measured for Cn1cnnc1C1(c2cccc(N3Cc4c(cc(CNC5(C)CCC5)cc4C(F)(F)F)C3=O)c2)C[S+]([O-])C1 (stereo not shown) ?
3.8

Any idea what fold-selectivity (Cbl-b over C-cbl) was measured for "Cn1cnnc1[C@H](CC1COC1)c1cccc(N2Cc3c(cc(CNC4(C)CCC4)cc3C(F)(F)F)C2=O)c1" ?
2.2

---

# measured.on: Cbl-b (Homo sapiens (Human), UniProt Q13191)
# assay.notes: Cbl-b LCK Ub TR-FRET assay (Cbl-b Lck HTRF)
# Format: biochemical
# experimental.setup: Cbl-b LCK Ub TR-FRET
# strict inequality: IC50 < 10 nM yields 1 (yes), everything else yields 0 (no)

Given CCOc1cc([C@]2(c3nncn3C)C[C@H](C)C2)cc(N2Cc3c(cc(CNC4(C)CCC4)cc3C(F)(F)F)C2=O)n1 [Compound 4] , is recorded IC50 strictly lower than 10 nM?
1 (yes)

Given CC(C)[C@H]1CN(C)CCN1Cc1cc2c(c(C(F)(F)F)c1)CN(c1cc([C@]3(c4nncn4C)C[C@@H](C)C3)cc(OC3CCCC3)n1)C2=O [Compound 72] , is recorded IC50 strictly lower than 10 nM?
0 (no)

Given CNc1cc(N2Cc3c(cc(CNC4(C)CCC4)cc3C(F)(F)F)C2=O)cc([C@]2(c3nncn3C)C[C@H](OC)C2)c1 [Compound 239] , is recorded IC50 strictly lower than 10 nM?
0 (no)

Given Cn1cnnc1C1(c2cccc(N3Cc4c(cc(CNC5(C)CCC5)cc4C(F)(F)F)C3=O)c2)CC2(CCC2)C1 [Compound 40] , is recorded IC50 strictly lower than 10 nM?
1 (yes)

Given C[C@H](NC1CCC1)c1cc2c(c(C(F)(F)F)c1)CN(c1cccc(C3(c4nncn4C)CC(F)(F)C3)c1)C2=O (single isomer, unassigned) [Compound 37] , is recorded IC50 strictly lower than 10 nM?
1 (yes)

Given Cn1cnnc1[C@@H](c1cccc(N2Cc3c(cc(CNC4(C)CCC4)cc3C(F)(F)F)C2=O)c1)C1CC(F)C1 (single isomer, unassigned) [Compound 129] , is recorded IC50 strictly lower than 10 nM?
0 (no)

Given CCNc1cc([C@]2(c3nncn3C)C[C@@H](C)C2)cc(N2Cc3c(cc(CNC4(C)CCC4)cc3C(F)(F)F)C2=O)c1F [Compound 337] , is recorded IC50 strictly lower than 10 nM?
1 (yes)

Given C=C[C@@H](C)Oc1cc(N2Cc3c(cc(CNC4(C)CCC4)cc3C(F)(F)F)C2=O)cc([C@]2(c3nncn3C)C[C@@H](OC)C2)c1 [Compound 213] , is recorded IC50 strictly lower than 10 nM?
0 (no)

Given CC[C@](O)(c1cccc(N2Cc3c(cc(CNC4(C)CCC4)cc3C(F)(F)F)C2=O)c1)c1nncn1C (single isomer, unassigned) [Compound 391] , is recorded IC50 strictly lower than 10 nM?
0 (no)

Given CC[C@H](NC1(C)CCC1)c1cc2c(c(C(F)(F)F)c1)CN(c1cccc([C@@H](c3nncn3C)C3COC3)c1)C2=O [Compound 315] , is recorded IC50 strictly lower than 10 nM?
0 (no)

Given CCNc1cc([C@]2(c3nncn3C)C[C@@H](C)C2)cc(N2Cc3c(cc(CNC4(C)CCC4)cc3C(F)(F)F)C2=O)n1 [Compound 5] , is recorded IC50 strictly lower than 10 nM?
1 (yes)

Given CO[C@H]1C[C@@](c2cccc(N3Cc4c(cccc4C(F)(F)F)C3=O)c2)(c2nncn2C)C1 [Compound 190] , is recorded IC50 strictly lower than 10 nM?
0 (no)

Given Cn1cnnc1[C@](F)(c1ccccc1)c1cccc(N2Cc3c(Cl)cc(CNC4(C)CCC4)cc3C2=O)c1 (single isomer, unassigned) [Compound 321] , is recorded IC50 strictly lower than 10 nM?
0 (no)
